The measured values listed here are drawn from ChEMBL document CHEMBL1201862.

# Test system: SF-539
# measurement description: NCI tumour cell line growth inhibition, 48 h
Activity calls are given as the source filed them. Cut-off read from the data, not from the text of the source: active = GI50 up to about 1.1 µM and inactive = higher.
quantity measured: GI50

Solved cases below.
>  <molecule>
Cc1cc(/N=C/c2ccc(F)cc2)n(-c2ccccc2)n1

>  <quantity measured>
GI50

>  <observed>
> 100 µM (inactive)

$$$$
>  <molecule>
c1cc(NC2=NCCO2)c2c(c1)OCO2

>  <quantity measured>
GI50

>  <observed>
> 100 µM (inactive)

$$$$
>  <molecule>
N#Cc1cccc(-n2[nH]c(=O)ccc2=O)c1

>  <quantity measured>
GI50

>  <observed>
> 100 µM (inactive)

$$$$
>  <molecule>
COc1ccc(S(=O)(=O)N/N=C(\C)CN2C(=O)c3ccccc3C2=O)cc1OC

>  <quantity measured>
GI50

>  <observed>
> 100 µM (inactive)

$$$$
>  <molecule>
CC1(C)OC(C[C@]2(C#N)C[C@H](CCl)OC(C)(C)O2)C[C@@H](C[C@]2(C#N)C[C@H](CCl)OC(C)(C)O2)O1 (stereo partly specified)

>  <quantity measured>
GI50

>  <observed>
> 100 µM (inactive)

$$$$
>  <molecule>
N=C(N)C1=C(O)NC(=O)N(C2CCCCC2)C1

>  <quantity measured>
GI50

>  <observed>
> 100 µM (inactive)

$$$$

Provide GI50 for all items below, preserving their order.
1. c1ccc([S+](c2ccccc2)c2ccc(Sc3ccc([S+](c4ccccc4)c4ccccc4)cc3)cc2)cc1
2. COc1ccc(-c2oc3c(CC(=O)O)cccc3c(=O)c2OC)cc1
3. Nc1nc(SCCNC(=O)CCc2ccc(O)c(I)c2)nc2c1ncn2C1OC(CO)C(O)C1O (stereo unspecified)
4. CCOC(=O)C1S/C(=N\C(=N)N[N+](=O)[O-])N=C1C (stereo unspecified)
5. N#CC1CCCCC1NC1(C#N)CCCCC1 (stereo unspecified)
6. Cc1ccc(C)n2c1nc1cc3ccccc3cc12

1: 31.3 µM (inactive); 2: > 100 µM (inactive); 3: > 100 µM (inactive); 4: > 100 µM (inactive); 5: > 100 µM (inactive); 6: 30.7 µM (inactive)

* * *

Measurement record for HCT-15; quantity recorded: GI50.

Solved cases below.
>  <compound>
Cc1sc2[nH]c(=O)oc(=O)c2c1C

>  <GI50>
> 89.9 µM

$$$$
>  <compound>
CC#CC1/C(=C\C(=O)OC)CCCC1O (centres undefined)

>  <GI50>
> 100 µM

$$$$
>  <compound>
N#Cc1c(N2CCCC2)ncn(Cc2ccccc2)c1=O

>  <GI50>
> 100 µM

$$$$

Now examine the next entry.
Measured GI50 of CCCC(=O)Nc1ncnc2c1ncn2C1OC2COP(=O)(O)OC2C1OC(=O)CCC (centres undefined) : > 100 µM

* * *

# Tested on: Malme-3M
# measurement description: NCI tumour cell line growth inhibition, 48 h
The source made the active and inactive calls. No stated cut-off is given here; in the data, active = GI50 up to about 1.1 µM and inactive = higher.
quantity measured: GI50

Solved cases below.
>  <molecule>
O=C(O)C1CCCN1Cc1c[nH]c2ccccc12 (configuration not stated)

>  <GI50>
> 100 µM (inactive)

$$$$
>  <molecule>
N#CC(NNC(=O)c1ccccc1O)c1cccc(O)c1 (configuration not stated)

>  <GI50>
12.9 µM (inactive)

$$$$
>  <molecule>
CCCCOc1ccc(OCCCCCCCCCC[N+](C)(C)C)cc1

>  <GI50>
4.37 µM (inactive)

$$$$
>  <molecule>
COC(=O)Nc1nc2ccccc2[nH]1

>  <GI50>
> 43.9 µM (inactive)

$$$$
>  <molecule>
CCN1CCN=C2c3cc(OC)ccc3Nc3c([N+](=O)[O-])ccc1c32

>  <GI50>
0.841 µM (active)

$$$$
>  <molecule>
Nc1ccn([C@@H]2C=C(CO)[C@@H](O)[C@H]2O)c(=O)n1

>  <GI50>
1.86 µM (inactive)

$$$$
>  <molecule>
O=c1[nH]nc(-c2ccccc2)n1/N=C/c1c[nH]c2ccccc12

>  <GI50>
> 100 µM (inactive)

$$$$
>  <molecule>
O=[N+]([O-])c1ccc(C[S+]([O-])Cc2ccccc2)cc1 (configuration not stated)

>  <GI50>
> 100 µM (inactive)

$$$$
>  <molecule>
CC1CN=C(N(Cc2ccccc2)C(=O)Nc2ccc(Cl)c(Cl)c2)S1 (configuration not stated)

>  <GI50>
99.3 µM (inactive)

$$$$
>  <molecule>
CC(=O)NNc1nc(C)c(C(/C=C/c2ccc3c(c2)OCO3)=N/NC(=O)c2ccncc2)s1

>  <GI50>
> 100 µM (inactive)

$$$$

Provide GI50 for all items below, preserving their order.
1. Cc1cc(CCC(=O)NCCNc2c3ccccc3nc3ccccc23)cc(C)c1O[Si](C)(C)C(C)(C)C
2. CCCCC/C=C\C=C\CCCCCCCCC(=O)OC
3. CO[C@]12C[C@H](CNC(=O)c3ccc[nH]3)O[C@H]1NC(=O)N2
4. O=C1c2ccccc2-c2c1c(-c1ccc(F)cc1)nc1ccc3ccccc3c21

2.06 µM (inactive)
> 100 µM (inactive)
> 100 µM (inactive)
> 100 µM (inactive)

Provide GI50 for all items below, preserving their order.
1. CC(NC(=O)OC(C)(C)C)C(=O)NC(Cc1ccccc1)C(=O)NCC(=O)ON=C1CCCC1 (configuration not stated)
2. COc1cc2nncc(Sc3cnnc4ccccc34)c2cc1OC
3. c1ccc2c3c([nH]c2c1)[C@H]1C2CCCCN2CN1CC3 (some centres not stated)
4. COc1ccc(Br)c(/C=N\c2cccc3cc(OC)c(OC)cc23)c1
5. CN(Cc1cc(Cl)c(Cl)cc1NC(=O)CN)[C@H]1CCCC[C@@H]1N1CCCC1
6. COc1nc(Cl)c(Cl)c(Cl)n1.COc1nc(Cl)nc(Cl)c1Cl

> 100 µM (inactive)
17.2 µM (inactive)
83.6 µM (inactive)
34 µM (inactive)
18.3 µM (inactive)
10.6 µM (inactive)

Provide GI50 for all items below, preserving their order.
1. N#Cc1sc2c(c1OC(=O)c1ccccc1)c(=O)n(-c1ccccc1)c(=S)n2-c1ccccc1
2. CC1(C)CCC(=O)c2c(O)ccc(O)c21
3. CC(C)(C)n1c(=O)n2n(c1=O)C1c3cccc4cccc(c34)C2C2c3cccc4cccc(c34)C1n1c(=O)n(C(C)(C)C)c(=O)n12
4. COc1cc(CC2C(=O)OCC2[C@@H](OC(C)=O)c2ccc3c(c2)OCO3)c(Br)c(OC)c1OC (some centres not stated)

20.5 µM (inactive)
> 100 µM (inactive)
> 100 µM (inactive)
37.9 µM (inactive)

Provide GI50 for all items below, preserving their order.
1. O=c1[nH]c2ccccc2nc1CBr
2. Cc1cc(C)cc(C(=N)c2ccccc2Cc2cccc3ccccc23)c1
3. CO[C@@](c1ccccc1)(c1nc(C#N)c(N)o1)C(F)(F)F

2.74 µM (inactive)
12.8 µM (inactive)
> 100 µM (inactive)
